Biological target: UniProtKB A3KMY8
Sequence (whole entry): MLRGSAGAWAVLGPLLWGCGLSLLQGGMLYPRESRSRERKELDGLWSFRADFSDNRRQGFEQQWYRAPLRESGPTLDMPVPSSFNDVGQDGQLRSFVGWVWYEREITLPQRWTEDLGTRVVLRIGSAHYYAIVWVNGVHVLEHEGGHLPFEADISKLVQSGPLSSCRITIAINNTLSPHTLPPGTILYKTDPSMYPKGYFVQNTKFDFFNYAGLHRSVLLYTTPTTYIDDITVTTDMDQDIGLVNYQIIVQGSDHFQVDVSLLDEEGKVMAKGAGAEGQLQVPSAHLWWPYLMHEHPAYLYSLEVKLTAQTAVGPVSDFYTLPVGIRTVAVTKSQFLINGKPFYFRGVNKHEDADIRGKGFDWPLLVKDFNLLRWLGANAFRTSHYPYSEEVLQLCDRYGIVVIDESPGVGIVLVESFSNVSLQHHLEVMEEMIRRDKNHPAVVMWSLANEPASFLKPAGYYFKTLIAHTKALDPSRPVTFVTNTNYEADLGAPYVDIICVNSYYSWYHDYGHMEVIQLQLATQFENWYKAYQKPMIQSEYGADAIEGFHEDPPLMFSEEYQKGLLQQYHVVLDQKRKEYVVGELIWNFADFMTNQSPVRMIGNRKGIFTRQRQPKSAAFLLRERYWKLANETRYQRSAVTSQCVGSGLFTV
Assay: Inhibition of bovine liver beta-glucuronidase
Set-up: concentration or dose not given beside the values
Conditions: concentration not given here
Quantity kind: inhibition (%)

Compound structure string	Target	Number
O=C(O)[C@@H]1NCCC[C@H]1O	UniProtKB A3KMY8	0.62
O=C(O)[C@H]1NCCC[C@H]1O	UniProtKB A3KMY8	0.18
O=C(O)[C@@H]1NCC=C[C@@H]1O	UniProtKB A3KMY8	10
O=C(O)[C@@H]1NCCC[C@@H]1O	UniProtKB A3KMY8	15

(1) O=C(O)[C@H]1NCC=C[C@H]1O
(2) O=C(O)[C@H]1NCC=C[C@@H]1O
(3) O=C(O)[C@@H]1NCC=C[C@H]1O
(4) O=C(O)[C@H]1NCCC[C@@H]1O
Query: Hey, quick one: sort these by inhibition, largest value first please. Please respond by ranking the labels in the order requested.
Result: 2, 1, 4, 3
(2: 19%, 1: 8.6%, 4: 0.89%, 3: 0.2%)

----------
System: Escherichia coli
Assay: Inhibition of Escherichia coli beta-glucuronidase
Set-up: concentration or dose not given beside the values
Conditions: concentration not given here
Quantity kind: inhibition (%)

Compound structure string	Quantity kind	Number
O=C(O)[C@H]1NCCC[C@@H]1O	inhibition	31
O=C(O)[C@@H]1NCCC[C@@H]1O	inhibition	23
O=C(O)[C@H]1NCCC[C@H]1O	inhibition	24
O=C(O)[C@@H]1NCC=C[C@@H]1O	inhibition	0.9

(a) O=C(O)[C@@H]1NCC=C[C@H]1O
(b) O=C(O)[C@H]1NCC=C[C@@H]1O
(c) O=C(O)[C@@H]1NCCC[C@H]1O
(d) O=C(O)[C@H]1NCC=C[C@H]1O
Query: Arrange the 4 entries by inhibition so the values rise. Provide the labels, sequenced as the question asks.
Result: a, b, d, c

----------
Test: Inhibition of bovine kidney beta-N-acetylglucosaminidase
Set-up: species or system Bos taurus
Quantity kind: IC50 (µM)
The reply should be a number in µM, with the unit left off.

Query: // IC50 lookup, key: O=C(O)[C@H]1NCC=C[C@@H]1O
Result: 720
